tissue uptake at 24 h values for the compounds below.
- TEST DETAILS: Tissue distribution in Swiss nu/nu SSCUP mice bearing Dau
- Type: in vivo, human
- CONDITION INFO: mouse, blood, iv, 3 umol/animal, 24 h; read-out: blood % ID/g
Record the result as number plus unit.

1. CCNCCNC(=O)c1ccc(I)cc1 [Derivative B, N-(2-ethylaminoethyl) 4-iodo benzamide]	0.009 %ID/g

Here's the next entry for you.
Query: tissue uptake at 24 h; subject: CCN(CC)CCNC(=O)c1ccc(I)cc1 [Derivative A, N-(2-diethylaminoethyl) 4-iodo benzamide]
0.008 %ID/g

* * *

- TEST DETAILS: Tissue distribution in Swiss nu/nu SSCUP mice bearing Beu
- Assay type: in vivo, human
- CONDITION INFO: mouse, tumor, iv, 3 umol/animal; 12 h; read-out: tumor % ID/g
QUANTITY MEASURED: tissue uptake at 12 h (%ID/g)
Report the value in %ID/g with no unit label.

I have this compound here, CCN(CC)CCNC(=O)c1ccc(I)cc1 [Derivative A, N-(2-diethylaminoethyl) 4-iodo benzamide] , and I need its recorded tissue uptake at 12 h.
0.36
